- Substrate: O=CC(O)COP(=O)(O)O
- protocol: coupled alpha-glycerophosphate dehydrogenase assay, A340
- Assay type: biochemical, Synechocystis sp. PCC 6803
- condition.parameters: 0.1 M TEA pH 7.4, 10 mM EDTA, 0.2 mM NADH, G3P 0-5 mM, G3P to DHAP
kcat/Km overview

protein | units.text | kcat/Km
SyTPI (Synechocystis sp. PCC 6803 substr. Kazusa) (protein, full length, codon-optimised, E. coli BL21(DE3) delta-tpi; His tag cut by PreScission, extra Gly-Pro-His before Met1; homodimer 54 kDa) MRKIIIAGNWKMHKTQAEAQAFLQGFKPLIEDAAESREVVLCVPFTDLSGMSQQLHGGRVRLGAQNVHWEASGAYTGEISAAMLTEIGIHYVVIGHSERRQYFGETDETANLRVLAAQKAGLIPILCVGESKAQRDAGETEQVIVDQVKKGLVNVDQSNLVIAYEPIWAIGTGDTCAATEANRVIGLIREQLTNSQVTIQYGGSVNANNVDEIMAQPEIDGALVGGASLEPQSFARIVNFQP | M⁻¹ s⁻¹ | 2.31e+06
SyTPI (Synechocystis sp. PCC 6803 substr. Kazusa; C42A) (protein, full length, codon-optimised, E. coli BL21(DE3) delta-tpi; His tag cut by PreScission, extra Gly-Pro-His before Met1; homodimer 54 kDa) MRKIIIAGNWKMHKTQAEAQAFLQGFKPLIEDAAESREVVLAVPFTDLSGMSQQLHGGRVRLGAQNVHWEASGAYTGEISAAMLTEIGIHYVVIGHSERRQYFGETDETANLRVLAAQKAGLIPILCVGESKAQRDAGETEQVIVDQVKKGLVNVDQSNLVIAYEPIWAIGTGDTCAATEANRVIGLIREQLTNSQVTIQYGGSVNANNVDEIMAQPEIDGALVGGASLEPQSFARIVNFQP | M⁻¹ s⁻¹ | 1.76e+06
SyTPI (Synechocystis sp. PCC 6803 substr. Kazusa; C127A/C176S/C42A) (protein, full length, codon-optimised, E. coli BL21(DE3) delta-tpi; His tag cut by PreScission, extra Gly-Pro-His before Met1; homodimer 54 kDa) MRKIIIAGNWKMHKTQAEAQAFLQGFKPLIEDAAESREVVLAVPFTDLSGMSQQLHGGRVRLGAQNVHWEASGAYTGEISAAMLTEIGIHYVVIGHSERRQYFGETDETANLRVLAAQKAGLIPILAVGESKAQRDAGETEQVIVDQVKKGLVNVDQSNLVIAYEPIWAIGTGDTSAATEANRVIGLIREQLTNSQVTIQYGGSVNANNVDEIMAQPEIDGALVGGASLEPQSFARIVNFQP | M⁻¹ s⁻¹ | 15200

The reported measurements were obtained from paper PMC6277545.
